- Measurement Protocol: Metabolic stability in human liver microsomes assessed as half life
- Format: ADME, Microsome
As shown below, each of these compounds has a reported half-life value.
Assay Endpoint: half-life (min)

>  <Chemical String>
N#CC/C=C/c1ccc2[nH]cc(NC(=O)Nc3ccc4c(c3)OC(F)(F)O4)c2c1

>  <Assay Endpoint>
half-life

>  <Value Unit>
min

>  <Val>
33.8

$$$$
>  <Chemical String>
CCc1ccc(NC(=O)Nc2c[nH]c3ccccc23)cc1

>  <Assay Endpoint>
half-life

>  <Value Unit>
min

>  <Val>
12.1

$$$$

---

- System Under Test: Stimulator of interferon genes protein (Mus musculus, UniProt Q3TBT3)
- Sequence (Q3TBT3 whole entry): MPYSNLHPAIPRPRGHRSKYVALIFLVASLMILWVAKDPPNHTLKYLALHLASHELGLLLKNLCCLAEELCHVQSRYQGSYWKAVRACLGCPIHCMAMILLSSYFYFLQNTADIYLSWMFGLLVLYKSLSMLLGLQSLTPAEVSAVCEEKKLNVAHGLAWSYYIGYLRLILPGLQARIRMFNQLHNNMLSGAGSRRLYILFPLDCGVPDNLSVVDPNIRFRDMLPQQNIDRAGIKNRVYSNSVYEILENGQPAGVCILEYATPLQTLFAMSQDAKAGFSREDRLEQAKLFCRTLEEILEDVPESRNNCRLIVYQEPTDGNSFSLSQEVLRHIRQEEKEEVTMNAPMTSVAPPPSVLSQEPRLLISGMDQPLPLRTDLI
- Measurement Protocol: Inhibition of mouse STING in mouse RAW cells assessed as secreted luciferase reporter of interferon stimulated gene (ISG) measured after 24 hrs incubation by QUANTI-Luc detection assay
Assay Endpoint: IC50 (nM)

>  <Chemical String>
O=C(Nc1ccc2c(c1)OC(F)(F)O2)Nc1c[nH]c2ccc(Cl)cc12

>  <Assay Endpoint>
IC50

>  <Val>
815

$$$$
>  <Chemical String>
Fc1ccc2[nH]cc(Nc3nc4cc5c(cc4[nH]3)OC(F)(F)O5)c2c1

>  <Assay Endpoint>
IC50

>  <Val>
229

$$$$
>  <Chemical String>
C#Cc1ccc2[nH]cc(NC(=O)Nc3ccc4c(c3)OC(F)(F)O4)c2c1

>  <Assay Endpoint>
IC50

>  <Val>
5450

$$$$
>  <Chemical String>
Fc1ccc2[nH]cc(Nc3nc4cc(C5CCCC5)ccc4[nH]3)c2c1

>  <Assay Endpoint>
IC50

>  <Val>
210

$$$$
>  <Chemical String>
Fc1cnc2[nH]cc(Nc3nc4cc(C5CCCC5)ccc4[nH]3)c2c1

>  <Assay Endpoint>
IC50

>  <Val>
52.3

$$$$
>  <Chemical String>
O=C(Nc1ccc2c(c1)OC(F)(F)O2)Nc1c[nH]c2ccccc12

>  <Assay Endpoint>
IC50

>  <Val>
407

$$$$
>  <Chemical String>
O=C(Nc1ccc2c(c1)OC(F)(F)O2)Nc1c[nH]c2ccc(Br)cc12

>  <Assay Endpoint>
IC50

>  <Val>
776

$$$$
>  <Chemical String>
N#CC/C=C/c1ccc2[nH]cc(NC(=O)Nc3ccc4c(c3)OC(F)(F)O4)c2c1

>  <Assay Endpoint>
IC50

>  <Val>
96.3

$$$$
>  <Chemical String>
O=C(Nc1cccc2c1OC(F)(F)O2)Nc1c[nH]c2ccccc12

>  <Assay Endpoint>
IC50

>  <Val>
457

$$$$
>  <Chemical String>
Fc1cc2[nH]cc(Nc3nc4cc(C5CCCC5)ccc4[nH]3)c2cc1F

>  <Assay Endpoint>
IC50

>  <Val>
305

$$$$

---

- Measurement Protocol: AUC (0 to infinity) in Sprague-Dawley rat at 1 mg/kg, iv
- Type: ADME, organism-based
- Conditions Used: in vivo
As shown below, each of these molecules has a reported AUC(0-inf) value.

>  <Chemical String>
Fc1cnc2[nH]cc(Nc3nc4cc(C5CCCC5)ccc4[nH]3)c2c1

>  <AUC(0-inf) / ng·h/mL>
43.8

$$$$
>  <Chemical String>
CCc1ccc(NC(=O)Nc2c[nH]c3ccccc23)cc1

>  <AUC(0-inf) / ng·h/mL>
116

$$$$
>  <Chemical String>
N#CC/C=C/c1ccc2[nH]cc(NC(=O)Nc3ccc4c(c3)OC(F)(F)O4)c2c1

>  <AUC(0-inf) / ng·h/mL>
196

$$$$

---

- Measurement Protocol: Metabolic stability in mouse liver microsomes assessed as half life
- Type: ADME, Microsome

>  <Chemical String>
CCc1ccc(NC(=O)Nc2c[nH]c3ccccc23)cc1

>  <half-life (min)>
6.29

$$$$
>  <Chemical String>
N#CC/C=C/c1ccc2[nH]cc(NC(=O)Nc3ccc4c(c3)OC(F)(F)O4)c2c1

>  <half-life (min)>
26.7

$$$$

---

- Measurement Protocol: Volume of distribution at steady state in Sprague-Dawley rat at 1 mg/kg, iv
- Type: ADME, organism-based
- Conditions Used: Sprague-Dawley, in vivo, read-out: Vdss

>  <Chemical String>
CCc1ccc(NC(=O)Nc2c[nH]c3ccccc23)cc1

>  <Value Unit>
L/kg

>  <Vd>
1.94

$$$$
>  <Chemical String>
N#CC/C=C/c1ccc2[nH]cc(NC(=O)Nc3ccc4c(c3)OC(F)(F)O4)c2c1

>  <Value Unit>
L/kg

>  <Vd>
2.38

$$$$

---

As shown below, each of these molecules has a reported clearance value.
- Measurement Protocol: Clearance in Sprague-Dawley rat at 1 mg/kg, iv
- Assay type: ADME, organism-based
- Conditions Used: in vivo

>  <Chemical String>
N#CC/C=C/c1ccc2[nH]cc(NC(=O)Nc3ccc4c(c3)OC(F)(F)O4)c2c1

>  <clearance [mL/min/kg]>
88.1

$$$$
>  <Chemical String>
CCc1ccc(NC(=O)Nc2c[nH]c3ccccc23)cc1

>  <clearance [mL/min/kg]>
144

$$$$

---

- Measurement Protocol: MRT (0 to infinity) in Sprague-Dawley rat at 1 mg/kg, iv
- Format: ADME, organism-based
- Conditions Used: Sprague-Dawley, in vivo
Assay Endpoint: MRT inf

>  <Chemical String>
CCc1ccc(NC(=O)Nc2c[nH]c3ccccc23)cc1

>  <Val>
12 min

$$$$
>  <Chemical String>
N#CC/C=C/c1ccc2[nH]cc(NC(=O)Nc3ccc4c(c3)OC(F)(F)O4)c2c1

>  <Val>
22.8 min

$$$$

---

- Measurement Protocol: AUC (0 to infinity) in Sprague-Dawley rat at 3 mg/kg, po
- Format: ADME, organism-based
- Conditions Used: in vivo

>  <Chemical String>
N#CC/C=C/c1ccc2[nH]cc(NC(=O)Nc3ccc4c(c3)OC(F)(F)O4)c2c1

>  <AUC(0-inf)>
74.8 ng·h/mL

$$$$

---

- Measurement Protocol: Metabolic stability in rat liver microsomes assessed as microsomal intrinsic clearance
- Format: ADME, Microsome
- Conditions Used: read-out: CLH

>  <Chemical String>
CCc1ccc(NC(=O)Nc2c[nH]c3ccccc23)cc1

>  <microsomal CLint [µL/min/mg]>
1360

$$$$
>  <Chemical String>
N#CC/C=C/c1ccc2[nH]cc(NC(=O)Nc3ccc4c(c3)OC(F)(F)O4)c2c1

>  <microsomal CLint [µL/min/mg]>
36

$$$$

---

- Measurement Protocol: Half life in Sprague-Dawley rat at 3 mg/kg, po
- Assay type: ADME, organism-based
- Conditions Used: in vivo

>  <Chemical String>
N#CC/C=C/c1ccc2[nH]cc(NC(=O)Nc3ccc4c(c3)OC(F)(F)O4)c2c1

>  <half-life / h>
3.27

$$$$

---

- Measurement Protocol: MRT (0 to infinity) in Sprague-Dawley rat at 3 mg/kg, po
- Format: ADME, organism-based
- Conditions Used: in vivo
Assay Endpoint: MRT (h)

>  <Chemical String>
N#CC/C=C/c1ccc2[nH]cc(NC(=O)Nc3ccc4c(c3)OC(F)(F)O4)c2c1

>  <Val>
7.66

$$$$
